# System: Hepatitis B virus
# experimental_details: Antiviral activity against HBV infected human HePAD38 cells assessed as reduction of HBV DNA level with compound replacement for every 3 days and measured on day 6 by qPCR analysis
# Type: functional, organism-based
observable: pEC50
Give only the number. pEC50 is defined as minus log10 of concentration in molar units.

Answered cases to consult:
| molecule | study_system | pEC50 |
| --- | --- | --- |
| CCOC(=O)C1=C(CN2CCN(C(C(=O)O)c3ccc(C=O)cc3)CC2)NC(c2nccs2)=NC1c1ccc(F)cc1Br (configuration not stated) | Hepatitis B virus | 5.41 |
| CCOC(=O)C1=C(CN2CCN(C(C(=O)O)c3ccc(Br)cc3)CC2)NC(c2nccs2)=NC1c1ccc(F)cc1Br (configuration not stated) | Hepatitis B virus | 5.91 |

Now examine the next entry.
# return recorded pEC50 for entry CCOC(=O)C1=C(CN2CCN(C(C(=O)O)c3ccc4c(c3)OCO4)CC2)NC(c2nccs2)=NC1c1ccc(F)cc1Br (configuration not stated)
5.61

---

# experimental_details: Selectivity index, ratio of CC50 for cytotoxicity against human HePAD38 cells assessed as reduction in cell viability to EC50 for antiviral activity against HBV infected human HePAD38 cells assessed as reduction of HBV DNA level
# Type: toxicity, cell-based
# measurement_conditions: read-out: Ratio CC50/EC50
observable: selectivity ratio
API note: the answer field is a bare number with no unit suffix.

Please review the entries below; each comes with its answer.
| compound | assay_result |
| --- | --- |
| CCOC(=O)C1=C(CN2CCN(C(C(=O)O)c3ccccc3OC)CC2)NC(c2nccs2)=NC1c1ccc(F)cc1Br (stereo not given) | 21.3 |
| CCOC(=O)C1=C(CN2CCN(C(C(=O)O)c3cccc4ccccc34)CC2)NC(c2nccs2)=NC1c1ccc(F)cc1Br (stereo not given) | 26.3 |

Let me know recorded selectivity ratio for CCOC(=O)C1=C(CN2CCN(C(C(=O)O)c3ccsc3)CC2)NC(c2nccs2)=NC1c1ccc(F)cc1Br (stereo not given) , thanks.
962

Determine its reported selectivity ratio: CCOC(=O)C1=C(CN2CCN(C(C(=O)O)c3cccc(C=O)c3)CC2)NC(c2nccs2)=NC1c1ccc(F)cc1Br (stereo not given)
2440

Please look at this compound and report its selectivity ratio: CCOC(=O)C1=C(CN2CCN(C(C(=O)O)c3ccc(CC)cc3)CC2)NC(c2nccs2)=NC1c1ccc(F)cc1Br (stereo not given)
41.4

Retrieve selectivity ratio measured for CCOC(=O)C1=C(CN2CCN(C(C(=O)O)c3ccccc3C#N)CC2)NC(c2nccs2)=NC1c1ccc(F)cc1Br (stereo not given) and print it.
9.3

Name the recorded selectivity ratio of the compound listed here: C=Cc1ccc(C(C(=O)O)N2CCN(CC3=C(C(=O)OCC)C(c4ccc(F)cc4Br)N=C(c4nccs4)N3)CC2)cc1 (stereo not given)
5.9

Return value of selectivity ratio for input CCOC(=O)C1=C(CN2CCN(C(C(=O)O)c3ccc4occc4c3)CC2)NC(c2nccs2)=NC1c1ccc(F)cc1Br (stereo not given) , no commentary.
9.8

Look up and report measured selectivity ratio for this entry: CCOC(=O)C1=C(CN2CCN(C(C(=O)O)c3ccc(O)cc3)CC2)NC(c2nccs2)=NC1c1ccc(F)cc1Br (stereo not given)
3.5

State its selectivity ratio: CCOC(=O)C1=C(CN2CCN(C(C(=O)O)c3ccc4c(c3)OCO4)CC2)NC(c2nccs2)=NC1c1ccc(F)cc1Br (stereo not given)
9.1

Give the value of selectivity ratio reported for the following: CCOC(=O)C1=C(CN2CCN(C(C(=O)O)c3ccc4c(c3)OCCO4)CC2)NC(c2nccs2)=NC1c1ccc(F)cc1Br (stereo not given)
508

Consider the compound CCOC(=O)C1=C(CN2CCN(C(C(=O)O)C3=CCCCC3)CC2)NC(c2nccs2)=NC1c1ccc(F)cc1Br (stereo not given) and give its recorded selectivity ratio.
34.8

Find the measured selectivity ratio of CCOC(=O)C1=C(CN2CCN(C(C(=O)O)c3ccc(C#N)cc3)CC2)NC(c2nccs2)=NC1c1ccc(F)cc1Br (stereo not given) and report it.
6.8

Quickly give me recorded selectivity ratio for CCOC(=O)C1=C(CN2CCN(C(C(=O)O)c3ccccc3C)CC2)NC(c2nccs2)=NC1c1ccc(F)cc1Br (stereo not given)
30.2

Find the measured selectivity ratio of CCOC(=O)C1=C(CN2CCN(C(C(=O)O)c3ccc(C)cc3)CC2)NC(c2nccs2)=NC1c1ccc(F)cc1Br (stereo not given) and report it.
2.6

// fetch selectivity ratio given entry CCOC(=O)C1=C(CN2CCN(C(C(=O)O)c3ccc(Br)cc3)CC2)NC(c2nccs2)=NC1c1ccc(F)cc1Br (stereo not given)
18

---

Form field: selectivity ratio (one value per entry).
# experimental_details: Selectivity index, ratio of CC50 for cytotoxicity against human HePAD38 cells assessed as reduction in cell viability to EC50 for antiviral activity against HBV infected human HePAD38 cells assessed as reduction of HBV DNA level
# Format: toxicity, cell-based
# measurement_conditions: read-out: Ratio CC50/EC50

Examples from the recorded data:
| compound | selectivity ratio |
| --- | --- |
| CCOC(=O)C1=C(CN2CCN(C(C(=O)O)c3cccc(F)c3)CC2)NC(c2nccs2)=NC1c1ccc(F)cc1Br (centres undefined) | < 2.2 |
| CCOC(=O)C1=C(CN2CCN(C(C(=O)O)c3ccc(F)cc3)CC2)NC(c2nccs2)=NC1c1ccc(F)cc1Br (centres undefined) | < 2.9 |
| CCOC(=O)C1=C(CN2CCN(C(C(=O)O)c3cccc(C(F)F)c3)CC2)NC(c2nccs2)=NC1c1ccc(F)cc1Br (centres undefined) | < 2.2 |

// next entry
State its selectivity ratio: CCOC(=O)C1=C(CN2CCN(C(C(=O)O)c3ccc(OC)cc3)CC2)NC(c2nccs2)=NC1c1ccc(F)cc1Br (centres undefined)
< 2.9
